System: Helicobacter pylori (CPY-433 F4)
Experiment: Bacteria eradication effect of urease inhibitor (in vivo) in infected mice
Conditions: 2 days for therapy; male ICR mice; 10 mg/kg p.o. twice daily; lansoprazole 30 mg/kg s.c. once daily before first dose
quantity: Eradication Rate

Worked examples follow.
(Q) Give Helicobacter pylori (CPY-433 F4) Eradication Rate for CC(=O)c1ccc(C(=O)NP(N)(N)=O)s1
(A) 1/5

(Q) Same read-out for NP(N)(=O)NC(=O)c1ccsc1Br ?
(A) 2/5

(Q) Same read-out for NP(N)(=O)NC(=O)c1sccc1C(F)F ?
(A) 1/5

(Q) Same read-out for NP(N)(=O)NC(=O)c1coc(Br)c1 ?
(A) 1/5

Continuing:
(Q) Give Helicobacter pylori (CPY-433 F4) Eradication Rate for Cc1cc(C(=O)NP(N)(N)=O)c(C)s1
(A) 2/5

(Q) Same read-out for CCc1ccc(C(=O)NP(N)(N)=O)s1 ?
(A) 1/5

(Q) Same read-out for NP(N)(=O)NC(=O)c1coc(Cl)c1 ?
(A) 1/5

(Q) Same read-out for N#Cc1ccsc1C(=O)NP(N)(N)=O ?
(A) 1/5

(Q) Same read-out for NP(N)(=O)NC(=O)c1csc(Br)c1 ?
(A) 1/5

(Q) Same read-out for NP(N)(=O)NC(=O)c1csc(Cl)c1 ?
(A) 1/5

(Q) Same read-out for N#Cc1ccc(C(=O)NP(N)(N)=O)s1 ?
(A) 1/5

====

Attribute: Eradication Rate
System: Helicobacter pylori (CPY-433 F4)
Assay: Bacteria eradication effect of urease inhibitor (in vivo) in infected mice
Conditions: 2 days for therapy; male ICR mice; 10 mg/kg p.o. twice daily; lansoprazole 30 mg/kg s.c. once daily before first dose

(Q) Recorded Eradication Rate for Cc1occc1C(=O)NP(N)(N)=O , please?
(A) 1/5

# evaluate next
(Q) Recorded Eradication Rate for NP(N)(=O)NC(=O)c1cc(Cl)sc1Cl , please?
(A) 1/5

====

Target: Helicobacter pylori-derived urease (Helicobacter pylori)
Construct: an urease solution prepared from Helicobacter pylori; endogenous in cells
Experiment: Screening of urease inhibitors (ammonia yield from urea)
Format: biochemical
Attribute: pIC50
FYI, pIC50 means -log10 of a concentration in mol per litre.

(Q) Recorded pIC50 for NP(N)(=O)NC(=O)CCc1ccc(Cl)cc1 , please?
(A) 8.23

Continuing:
(Q) Recorded pIC50 for NP(N)(=O)NC(=O)COc1ccc(Cl)cc1 , please?
(A) 8.52

(Q) Same read-out for N#Cc1ccsc1C(=O)NP(N)(N)=O ?
(A) 8.66

(Q) Same read-out for NP(N)(=O)NC(=O)c1ccc([N+](=O)[O-])s1 ?
(A) 8.44

(Q) Same read-out for NP(N)(=O)NC(=O)c1ccccc1C(F)(F)F ?
(A) 8.10

(Q) Same read-out for COc1ccc(C(=O)NP(N)(N)=O)cc1 [Reference Example 12, N-(diaminophosphinyl)-4-methoxybenzamide] ?
(A) 7.36

(Q) Same read-out for NP(N)(=O)NC(=O)c1ccsc1C(F)F ?
(A) 8.60

(Q) Same read-out for NP(N)(=O)NC(=O)c1coc(Cl)c1 ?
(A) 8.24

(Q) Same read-out for NP(N)(=O)NC(=O)c1ccoc1 [Reference Example 29, N-(Diaminophosphinyl)-3-furancarboxamide] ?
(A) 8.23

====

Molecular target: Helicobacter pylori-derived urease (Helicobacter pylori)
Construct: an urease solution prepared from Helicobacter pylori; endogenous in cells
Assay: Screening of urease inhibitors (ammonia yield from urea)
Format: biochemical
quantity: pIC50
FYI, pIC50 means -log10 of a concentration in mol per litre.

(Q) Recorded pIC50 for NP(N)(=O)NC(=O)c1ccc(Cl)o1 , please?
(A) 8.64

Continuing:
(Q) Recorded pIC50 for Cc1c(C(=O)NP(N)(N)=O)csc1Cl , please?
(A) 8.60

(Q) Same read-out for NP(N)(=O)NC(=O)C=Cc1cccc(F)c1 ?
(A) 7.77

(Q) Same read-out for NP(N)(=O)NC(=O)c1ccc(Br)s1 ?
(A) 8.46

(Q) Same read-out for NP(N)(=O)NC(=O)c1sccc1Br ?
(A) 9.10

(Q) Same read-out for CS(=O)(=O)c1ccc(C(=O)NP(N)(N)=O)s1 ?
(A) 7.96

(Q) Same read-out for NP(N)(=O)NC(=O)COc1ccccc1Cl ?
(A) 8.27

(Q) Same read-out for N#Cc1ccc(OCC(=O)NP(N)(N)=O)cc1 ?
(A) 8.12

====

Molecular target: Helicobacter pylori-derived urease (Helicobacter pylori)
Construct: an urease solution prepared from Helicobacter pylori; endogenous in cells
Assay: Screening of urease inhibitors (ammonia yield from urea)
Format: biochemical
quantity: pIC50
FYI, pIC50 means -log10 of a concentration in mol per litre.

Worked examples follow.
(Q) Recorded pIC50 for NP(N)(=O)NC(=O)c1ccc(F)cc1F [Reference Example 10] , please?
(A) 8.11

(Q) Same read-out for Nc1ccccc1CCC(=O)NP(N)(N)=O [compound 43] ?
(A) 7.15

(Q) Same read-out for NP(N)(=O)NC(=O)C=Cc1ccccc1 [Reference Example 4, N-(Diaminophosphinyl)cinnamamide] ?
(A) 8.00

Continuing:
(Q) Recorded pIC50 for NP(N)(=O)NC(=O)c1ccc(Br)cc1 [Reference Example 22, N-(Diaminophosphinyl)-4-bromobenzamide] , please?
(A) 8.03

(Q) Same read-out for N#Cc1ccc(C=CC(=O)NP(N)(N)=O)cc1 [compound 32, N-(Diaminophosphinyl)-4-cyanocinnamamide] ?
(A) 7.85

====

Target: Helicobacter pylori-derived urease (Helicobacter pylori)
Construct: an urease solution prepared from Helicobacter pylori; endogenous in cells
Experiment: Screening of urease inhibitors (ammonia yield from urea)
Assay type: biochemical
Procedure: Screening of Urease Inhibitors One hundred (100) μl of 100 mM Bis-Tris buffer (pH 6.5) and 60 μl of an urease solution prepared from Helicobacter pylori were added to 20 μl of a test drug dissolved in 0.1% dimethylformamide solution. […] The mixture was kept at room temperature for 10 minutes, and then the yielded ammonia in the incubation mixture was measured using a commercial test kit (Ammonia Test Wako®; Wako Pure Chemical). […]
quantity: pIC50
FYI, pIC50 means -log10 of a concentration in mol per litre.

(Q) Recorded pIC50 for NP(N)(=O)NC(=O)c1ccc(Cl)s1 [Example 5] , please?
(A) 8.52

(Q) Same read-out for Cc1cc(C(=O)NP(N)(N)=O)sc1Br [Example 29] ?
(A) 8.09

(Q) Same read-out for COc1ccc(OCC(=O)NP(N)(N)=O)cc1 [Example 53] ?
(A) 8.10

# evaluate next
(Q) Recorded pIC50 for NP(N)(=O)NC(=O)Cc1ccsc1 [Example 81, N-(Diaminophosphinyl)-3-thienylacetamide] , please?
(A) 8.10

====

System: Helicobacter pylori (CPY-433 F4)
Experiment: Bacteria eradication effect of urease inhibitor (in vivo) in infected mice
Settings: 2 days for therapy; male ICR mice; 10 mg/kg p.o. twice daily; lansoprazole 30 mg/kg s.c. once daily before first dose
quantity: Eradication Rate

(Q) Give Helicobacter pylori (CPY-433 F4) Eradication Rate for Cc1sccc1C(=O)NP(N)(N)=O
(A) 2/5

(Q) Same read-out for CCc1ccc(C(=O)NP(N)(N)=O)o1 ?
(A) 1/5

(Q) Same read-out for NP(N)(=O)NC(=O)c1ccoc1Cl ?
(A) 1/5

# evaluate next
(Q) Give Helicobacter pylori (CPY-433 F4) Eradication Rate for Cc1csc(C(=O)NP(N)(N)=O)c1
(A) 1/5

====

Molecular target: Helicobacter pylori-derived urease (Helicobacter pylori, UniProt P69996)
Construct: an urease solution prepared from Helicobacter pylori; endogenous in cells
Sequence (P69996 whole entry, looked up): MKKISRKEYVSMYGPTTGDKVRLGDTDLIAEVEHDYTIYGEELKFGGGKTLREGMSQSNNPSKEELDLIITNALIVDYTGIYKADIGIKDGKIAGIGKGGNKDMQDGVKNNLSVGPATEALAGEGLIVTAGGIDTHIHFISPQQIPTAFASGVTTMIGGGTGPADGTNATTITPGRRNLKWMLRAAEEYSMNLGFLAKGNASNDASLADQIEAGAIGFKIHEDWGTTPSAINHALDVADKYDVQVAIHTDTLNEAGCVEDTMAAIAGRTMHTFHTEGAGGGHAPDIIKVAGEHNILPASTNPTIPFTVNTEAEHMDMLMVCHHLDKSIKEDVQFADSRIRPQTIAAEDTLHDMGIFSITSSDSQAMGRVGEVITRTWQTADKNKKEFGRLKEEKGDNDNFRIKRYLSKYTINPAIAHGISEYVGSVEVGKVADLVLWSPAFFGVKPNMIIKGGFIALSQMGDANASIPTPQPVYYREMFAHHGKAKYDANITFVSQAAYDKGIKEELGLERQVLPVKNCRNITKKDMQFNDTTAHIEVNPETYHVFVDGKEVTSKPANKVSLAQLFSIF
Test: Screening of urease inhibitors (ammonia yield from urea)
Assay type: biochemical
quantity: pIC50
FYI, pIC50 means -log10 of a concentration in mol per litre.

Worked examples follow.
(Q) Recorded pIC50 for Cc1nc2cc(C(=O)NP(N)(N)=O)ccc2o1 [Example 68] , please?
(A) 7.74

(Q) Same read-out for NP(N)(=O)NC(=O)c1ccc(C(F)(F)F)cc1 [compound 19] ?
(A) 7.92

(Q) Same read-out for NP(N)(=O)NC(=O)c1csc(Br)c1 [Example 11] ?
(A) 8.38

(Q) Same read-out for CCc1occc1C(=O)NP(N)(N)=O [Example 51] ?
(A) 7.66

(Q) Same read-out for Cc1ccc2c(Cl)c(C(=O)NP(N)(N)=O)sc2c1 [Example 71] ?
(A) 8.72

Continuing:
(Q) Recorded pIC50 for NP(N)(=O)NC(=O)c1csc(C(F)F)c1 [Example 31] , please?
(A) 8.15

(Q) Same read-out for NP(N)(=O)NC(=O)c1cc(Br)sc1Cl [Example 86] ?
(A) 9.05

(Q) Same read-out for NP(N)(=O)NC(=O)c1ccc(Cl)cc1 [compound 7, N-(Diaminophosphinyl)-4-chlorobenzamide] ?
(A) 8.16

(Q) Same read-out for NP(N)(=O)NC(=O)c1ccc(C(F)F)s1 [Example 13] ?
(A) 8.28

(Q) Same read-out for NP(N)(=O)NC(=O)CSc1nc2ccccc2o1 [Example 63] ?
(A) 8.25

(Q) Same read-out for NP(N)(=O)NC(=O)c1coc(Br)c1 [Example 41] ?
(A) 8.11

(Q) Same read-out for NP(N)(=O)NC(=O)CCc1ccccc1 [Reference Example 37] ?
(A) 7.77

(Q) Same read-out for NP(N)(=O)NC(=O)CCc1cccc(F)c1 [compound 42] ?
(A) 7.66

(Q) Same read-out for NP(N)(=O)NC(=O)c1cccc(Cl)c1 [compound 27, N-(Diaminophosphinyl)-3-chlorobenzamide] ?
(A) 8.41

(Q) Same read-out for NP(N)(=O)NC(=O)Cc1cccs1 [Example 80, N-(Diaminophosphinyl)-2-thienylacetamide] ?
(A) 8.36

(Q) Same read-out for N#CC(=Cc1cccs1)C(=O)NP(N)(N)=O [Example 79] ?
(A) 8.22
